Data origin: ChEMBL document CHEMBL1821628

Target: Nitric oxide synthase, inducible (Mus musculus, UniProt P29477)
Sequence (P29477 whole entry): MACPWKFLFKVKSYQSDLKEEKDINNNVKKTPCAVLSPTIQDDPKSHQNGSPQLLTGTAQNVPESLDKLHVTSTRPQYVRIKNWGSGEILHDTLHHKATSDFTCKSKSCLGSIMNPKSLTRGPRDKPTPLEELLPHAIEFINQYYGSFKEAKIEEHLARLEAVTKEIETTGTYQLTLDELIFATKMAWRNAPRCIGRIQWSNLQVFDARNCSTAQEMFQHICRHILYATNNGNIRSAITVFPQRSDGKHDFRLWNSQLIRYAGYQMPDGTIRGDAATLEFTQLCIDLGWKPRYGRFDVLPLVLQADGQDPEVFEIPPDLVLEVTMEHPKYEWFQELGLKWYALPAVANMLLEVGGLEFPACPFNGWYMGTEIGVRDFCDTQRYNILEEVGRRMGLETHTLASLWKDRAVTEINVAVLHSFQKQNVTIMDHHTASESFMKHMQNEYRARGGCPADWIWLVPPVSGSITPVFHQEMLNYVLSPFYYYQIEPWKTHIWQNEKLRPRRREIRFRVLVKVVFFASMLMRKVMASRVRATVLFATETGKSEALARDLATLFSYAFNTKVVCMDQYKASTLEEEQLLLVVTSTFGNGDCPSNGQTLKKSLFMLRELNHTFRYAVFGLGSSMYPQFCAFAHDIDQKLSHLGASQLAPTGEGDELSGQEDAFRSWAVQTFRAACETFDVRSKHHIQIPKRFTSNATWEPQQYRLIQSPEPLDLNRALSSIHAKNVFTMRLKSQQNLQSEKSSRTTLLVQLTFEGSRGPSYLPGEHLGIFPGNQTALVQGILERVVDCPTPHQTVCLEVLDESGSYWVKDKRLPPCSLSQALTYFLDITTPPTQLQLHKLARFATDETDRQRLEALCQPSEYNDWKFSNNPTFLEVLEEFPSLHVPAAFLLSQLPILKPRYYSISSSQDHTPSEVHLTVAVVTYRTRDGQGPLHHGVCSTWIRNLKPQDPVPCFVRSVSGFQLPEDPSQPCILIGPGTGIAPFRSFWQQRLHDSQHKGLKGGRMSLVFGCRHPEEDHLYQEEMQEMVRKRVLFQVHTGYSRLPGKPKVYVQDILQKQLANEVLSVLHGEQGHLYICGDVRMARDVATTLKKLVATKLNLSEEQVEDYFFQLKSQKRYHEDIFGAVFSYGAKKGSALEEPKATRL
Settings: raw264.7
Description: Inhibition of iNOS in mouse RAW264.7 cells assessed as anti-inflammatory activity by measuring maximum inhibition of LPS-induced nitric oxide production after 24 hrs
measured-parameter: IC50 (µM)
# number only, unit µM dropped from output

Answered cases to consult:
| molecule | measured-parameter | value-observed |
| --- | --- | --- |
| N=C(NCCC[C@H](N)C(=O)O)N[N+](=O)[O-] | IC50 | 152 |
| COc1cc(C(=O)O[C@@H](c2cc(OC)c(OC)c(OC)c2)[C@H](C)C(C)=O)cc(OC)c1OC | IC50 | 51.4 |
| COc1cc([C@@H]2O[C@@H](c3cc(OC)c4c(c3)OCO4)[C@H](C)[C@H]2C)cc(OC)c1OC (relative stereo) | IC50 | 49 |

// next entry
Query :: Name the reported IC50 value associated with the molecule O=C(O)[C@@H]1C=C[C@@H]2C[C@H]3[C@H](CCCc4ccc5c(c4)OCO5)[C@H]4C=C[C@@H]1[C@@H]2[C@H]43 (relative stereo)
Result :: 49.6
